SUBJECT OF TEST: Met (Homo sapiens)
MEASURE: Kd

Recorded Kd, per entry:
{"columns": ["COMPOUND", "Kd"],
 "data": [
  ["CCOc1cn(-c2cccs2)nc1C(=O)Nc1ccc(Oc2ccnc3cc(OC)c(OC)cc23)cn1 [Compound 17]", "< 100 nM"],
  ["CCOc1cn(-c2ncc(Cl)cc2CN(C)C)nc1C(=O)Nc1ccc(Oc2ccnc3cc(OC)c(OC)cc23)cn1 [Compound 138]", "< 100 nM"],
  ["CCOc1cnn(C2CCOC2)c1C(=O)Nc1ccc(Oc2ccnc3cc(OC)c(OC)cc23)cn1 (stereo not drawn) [Compound 77]", "100 to 1000 nM"]
]}

Exercise: Met (Homo sapiens) / Kd / CCOc1cn(-c2ccc(F)cc2F)nc1C(=O)Nc1ccc(Oc2ccnc3cc(OC)c(OC)cc23)cn1 [Compound 107] : value?
Key: < 100 nM

Exercise: Reported Kd for Met (Homo sapiens), given CCOc1cn(-c2nccnc2Cl)nc1C(=O)Nc1ccc(Oc2ccnc3cc(OC)c(OC)cc23)cn1 [Compound 177] ?
Key: < 100 nM

Exercise: Record lookup: for Met (Homo sapiens), what Kd belongs to CCOc1cn(-c2cnccc2Cl)nc1C(=O)Nc1ccc(Oc2ccnc3cc(OC)c(OC)cc23)cc1F [Compound 194] ?
Key: < 100 nM

Exercise: Kindly state the measured Kd obtained for CCOc1cn(CC2CCNCC2)nc1C(=O)Nc1ccc(Oc2ccnc3cc(OC)c(OC)cc23)cc1F [Compound 218] with Met (Homo sapiens).
Key: 100 to 1000 nM

Exercise: What value of Kd on Met (Homo sapiens) does COc1cc2c(Oc3ccc(NC(=O)c4c(OCC(F)(F)F)cnn4-c4cnc(N)nc4)nc3)ccnc2cc1OC(C)C [Compound 256] have?
Key: ≥ 1000 nM

Exercise: State its Kd on Met (Homo sapiens): CCOc1cn(-c2ccc(C#N)cn2)nc1C(=O)Nc1ccc(Oc2ccnc3cc(OC)c(OC)cc23)cn1 [Compound 43]
Key: ≥ 1000 nM

Exercise: API: value(readout=Kd, system=Met (Homo sapiens)) for record C=C(C)c1ccncc1-n1cc(OCC)c(C(=O)Nc2ccc(Oc3ccnc4cc(OC)c(OC)cc34)cn2)n1 [Compound 202]
Key: < 100 nM

Exercise: Record lookup: for Met (Homo sapiens), what Kd belongs to COc1cc2nccc(Oc3ccc(NC(=O)c4nn(-c5ccc(F)cc5Oc5ccccc5)cc4OCC4CC4)nc3)c2cc1OC [Compound 272] ?
Key: 100 to 1000 nM

Exercise: // fetch Met (Homo sapiens) Kd for CCOc1cn(-c2ccc(Cl)cc2F)nc1C(=O)Nc1ccc(Oc2ccnc3cc(OC)c(OC)cc23)cn1 [Compound 106]
Key: < 100 nM

Exercise: Find Kd (Met (Homo sapiens)) for the entry CCC(C)Oc1cc2nccc(Oc3ccc(NC(=O)c4nn(-c5cnc(N)nc5)cc4OCC(F)(F)F)nc3)c2cc1OC (stereo not drawn) [Compound 235]
Key: 100 to 1000 nM

Exercise: Report Kd for CCOc1cn(-c2cnccc2C)nc1C(=O)Nc1ccc(Oc2ccnc3cc(OC)c(OC)cc23)cc1F [Compound 151] tested on Met (Homo sapiens).
Key: < 100 nM

Exercise: Request: Kd, test system Met (Homo sapiens), entry CCOc1cn(-c2ccc(F)c(CO)c2)nc1C(=O)Nc1ccc(Oc2ccnc3cc(OC)c(OC)cc23)cn1 [Compound 128]
Key: < 100 nM

----------
Dear all, this message contains Kd results, target or system Met (Homo sapiens).

{"columns": ["MOLECULE", "SUBJECT OF TEST", "Kd"],
 "data": [
  ["CCOc1cn(-c2cnccn2)nc1C(=O)NC1CC(Oc2ccnc3cc(OC)c(OC)cc23)C1 (stereo not drawn)", "Met (Homo sapiens)", "100 to 1000 nM"],
  ["COc1cc2nccc(Oc3ccc(NC(=O)c4nn(-c5cnc(N)nc5)cc4OC(F)F)nc3)c2cc1OC", "Met (Homo sapiens)", "≥ 1000 nM"],
  ["CCOc1cnn(-c2ccc(C(F)(F)F)cc2C(F)(F)F)c1C(=O)Nc1ccc(Oc2ccnc3cc(OC)c(OC)cc23)cn1", "Met (Homo sapiens)", "< 100 nM"],
  ["CCOc1cn(-c2cnccc2C(=O)OC)nc1C(=O)Nc1ccc(Oc2ccnc3cc(OC)c(OC)cc23)cn1", "Met (Homo sapiens)", "< 100 nM"],
  ["CCOc1cn(-c2ccncc2C)nc1C(=O)Nc1ccc(Oc2ccnc3cc(OC)c(OC)cc23)cn1", "Met (Homo sapiens)", "< 100 nM"],
  ["COc1cc2nccc(Oc3ccc(NC(=O)c4nn(-c5cccnc5)cc4OCC4CC4)nc3)c2cc1OC", "Met (Homo sapiens)", "< 100 nM"],
  ["CCOc1cn(-c2cnc(N)nc2)nc1C(=O)Nc1ccc(Oc2ccnc3cc(OC)c(OC)cc23)c(C)c1", "Met (Homo sapiens)", "< 100 nM"],
  ["CCOc1cn(C2CCCC2)nc1C(=O)Nc1ccc(Oc2ccnc3cc(OC)c(OC)cc23)cn1", "Met (Homo sapiens)", "< 100 nM"]
]}

Exercise: Identify the measured Kd of `COc1cc2nccc(Oc3ccc(NC(=O)c4nn(-c5ccc(OC(F)(F)F)cc5Cl)cc4OCC4CC4)nc3)c2cc1OC` for Met (Homo sapiens).
Key: < 100 nM

----------
SUBJECT OF TEST: TYRO3 (Homo sapiens, UniProt Q06418)
Sequence (Q06418 41-890): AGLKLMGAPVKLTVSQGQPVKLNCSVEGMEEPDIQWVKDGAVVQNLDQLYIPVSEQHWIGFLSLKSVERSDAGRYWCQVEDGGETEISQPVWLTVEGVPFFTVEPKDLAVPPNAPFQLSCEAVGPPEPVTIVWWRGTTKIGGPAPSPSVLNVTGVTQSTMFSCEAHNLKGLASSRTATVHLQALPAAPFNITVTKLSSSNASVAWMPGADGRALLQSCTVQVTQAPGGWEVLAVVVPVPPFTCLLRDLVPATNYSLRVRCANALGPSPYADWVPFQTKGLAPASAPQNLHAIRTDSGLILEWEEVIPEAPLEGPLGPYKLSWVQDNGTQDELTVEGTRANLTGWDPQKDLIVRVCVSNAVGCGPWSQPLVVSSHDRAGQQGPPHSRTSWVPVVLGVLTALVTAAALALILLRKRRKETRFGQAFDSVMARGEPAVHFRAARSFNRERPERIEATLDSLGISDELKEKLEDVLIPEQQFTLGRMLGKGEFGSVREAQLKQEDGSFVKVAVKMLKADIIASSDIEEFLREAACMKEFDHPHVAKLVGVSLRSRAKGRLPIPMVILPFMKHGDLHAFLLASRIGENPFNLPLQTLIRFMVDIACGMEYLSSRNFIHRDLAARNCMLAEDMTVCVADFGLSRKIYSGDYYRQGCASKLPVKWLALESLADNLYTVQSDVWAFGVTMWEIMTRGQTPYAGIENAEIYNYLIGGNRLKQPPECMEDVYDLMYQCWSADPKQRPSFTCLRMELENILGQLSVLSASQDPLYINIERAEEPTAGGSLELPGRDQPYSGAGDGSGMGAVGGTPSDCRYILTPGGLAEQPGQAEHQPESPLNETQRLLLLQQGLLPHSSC
Reported values of Kd for individual entries

Exercise: Return Kd measured with TYRO3 (Homo sapiens, UniProt Q06418) given this compound: `COc1cc2nccc(Oc3ccc(NC(=O)c4nn(-c5cnc(N)cn5)cc4OCC(F)(F)F)nc3)c2cc1OC`
Key: < 100 nM

----------
SUBJECT OF TEST: Met (Homo sapiens, UniProt P08581)
Sequence (P08581 25-1390): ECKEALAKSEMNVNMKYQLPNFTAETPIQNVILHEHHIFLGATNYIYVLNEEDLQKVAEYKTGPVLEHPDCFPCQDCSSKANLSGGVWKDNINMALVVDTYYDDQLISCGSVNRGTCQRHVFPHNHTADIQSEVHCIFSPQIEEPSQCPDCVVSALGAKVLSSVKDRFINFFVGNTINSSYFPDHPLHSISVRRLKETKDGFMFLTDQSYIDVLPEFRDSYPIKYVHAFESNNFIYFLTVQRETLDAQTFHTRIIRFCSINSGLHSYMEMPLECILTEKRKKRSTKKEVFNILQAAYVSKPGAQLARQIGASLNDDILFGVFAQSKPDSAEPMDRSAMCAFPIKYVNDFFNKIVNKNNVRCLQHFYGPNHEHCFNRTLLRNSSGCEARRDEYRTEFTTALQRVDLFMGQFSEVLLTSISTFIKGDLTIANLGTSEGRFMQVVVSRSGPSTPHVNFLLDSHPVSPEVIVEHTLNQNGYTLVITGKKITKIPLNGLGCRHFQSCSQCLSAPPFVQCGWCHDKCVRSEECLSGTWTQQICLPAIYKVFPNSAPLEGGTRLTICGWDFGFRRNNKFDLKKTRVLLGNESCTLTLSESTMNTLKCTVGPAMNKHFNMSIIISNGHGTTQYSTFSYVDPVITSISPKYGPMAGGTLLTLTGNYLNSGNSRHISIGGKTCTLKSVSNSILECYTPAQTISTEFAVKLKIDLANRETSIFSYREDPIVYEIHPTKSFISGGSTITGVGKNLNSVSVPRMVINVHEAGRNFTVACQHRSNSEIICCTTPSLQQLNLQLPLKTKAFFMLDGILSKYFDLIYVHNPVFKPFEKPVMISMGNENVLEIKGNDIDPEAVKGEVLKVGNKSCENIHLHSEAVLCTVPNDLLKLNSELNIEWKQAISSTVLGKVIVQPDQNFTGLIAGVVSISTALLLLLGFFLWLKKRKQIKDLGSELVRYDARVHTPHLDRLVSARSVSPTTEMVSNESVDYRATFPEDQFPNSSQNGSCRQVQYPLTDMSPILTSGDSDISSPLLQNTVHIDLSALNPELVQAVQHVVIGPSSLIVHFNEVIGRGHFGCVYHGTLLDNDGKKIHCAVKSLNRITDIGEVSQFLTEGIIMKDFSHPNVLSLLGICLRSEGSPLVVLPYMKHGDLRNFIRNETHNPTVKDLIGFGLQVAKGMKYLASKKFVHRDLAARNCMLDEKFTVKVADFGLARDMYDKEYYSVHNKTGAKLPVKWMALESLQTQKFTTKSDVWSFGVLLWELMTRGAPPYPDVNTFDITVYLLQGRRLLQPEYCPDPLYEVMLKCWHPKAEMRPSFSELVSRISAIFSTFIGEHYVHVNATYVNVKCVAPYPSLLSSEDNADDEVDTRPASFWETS
pKd: −log10 of the molar value.
# pKd per entry

Example entries and their recorded answers appear below.
{"columns": ["SMILES CODE", "VALUE MEASURED"],
 "data": [
  ["CCOc1cn(-c2ccc(C(F)(F)F)cc2C(F)(F)F)nc1C(=O)Nc1ccc(Oc2ccnc3cc(OC)c(OC)cc23)cn1", "> 7.00"],
  ["CCOc1cnn(-c2cccs2)c1C(=O)Nc1ccc(Oc2ccnc3cc(OC)c(OC)cc23)cn1", "6.00 to 7.00"],
  ["CCOc1cn(-c2cnccc2CO)nc1C(=O)Nc1ccc(Oc2ccnc3cc(OC)c(OC)cc23)cc1F", "> 7.00"],
  ["CCOc1cn(-c2cccnc2)nc1C(=O)Nc1ncc(Oc2ccnc3cc(OC)c(OC)cc23)cc1F", "≤ 6.00"],
  ["CCOc1cn(-c2cnc(N)nc2)nc1C(=O)Nc1ccc(Oc2ccnc3cc(OC(C)C)c(OC)cc23)cc1F", "≤ 6.00"],
  ["CCOc1cn(-c2cnccc2C(C)(C)O)nc1C(=O)Nc1ccc(Oc2ccnc3cc(OC)c(OC)cc23)cn1", "> 7.00"]
]}

Exercise: Query pKd on Met (Homo sapiens, UniProt P08581) for `CCOc1cn(CCO)nc1C(=O)Nc1ccc(Oc2ccnc3cc(OC)c(OC)cc23)cn1`
Key: 6.00 to 7.00
